# ASSAY_COMMENT: Half life in human
# Format: ADME, organism-based
# EXPERIMENTAL_PARAMETERS: in vivo
MEASURED_PARAMETER: half-life (min)

>>> reported_measurement("OC(Cn1ccnc1)c1ccc(CCc2ccccc2)cc1 (stereo unspecified)")
300
